Each recorded value in this set is attributed to ChEMBL document CHEMBL3124787.

Here the recorded logP is given for each entry.
assay: Lipophilicity, log P of the compound by HPLC analysis; assay type: physicochemical
A bare number is all that is needed in reply.

Some entries whose results are on file:
CC(=O)NC[C@H]1CN(c2ccc(OC[C@@H](O)CNc3cc(C(F)(F)F)cc(C(F)(F)F)c3)c(F)c2)C(=O)O1 3.1
CC(=O)NC[C@H]1CN(c2ccc(OC[C@H](O)CNc3ccncc3)c(F)c2)C(=O)O1 0.02
CC(=O)NC[C@H]1CN(c2ccc(OC[C@@H](O)CNCCC(C)C)c(F)c2)C(=O)O1 1.17
CC(=O)NC[C@H]1CN(c2ccc(OC[C@@H](O)CNc3ccc(C#N)cc3)c(F)c2)C(=O)O1 2.12
CC(=O)NC[C@H]1CN(c2ccc(OC[C@H](O)CNc3ccc(C#N)cc3)c(F)c2)C(=O)O1 1.29
CC(=O)NC[C@H]1CN(c2ccc(OC[C@@H]3CN(c4ccc(N5C[C@H](CNC(C)=O)OC5=O)cc4F)C(=O)O3)c(F)c2)C(=O)O1 0.43

Complete the entry with logP for "CC(=O)NC[C@H]1CN(c2ccc(OC[C@H]3CN(c4ccccc4)C(=O)O3)c(F)c2)C(=O)O1"
1.86

Complete the entry with logP for "CC(=O)NC[C@H]1CN(c2ccc(OC[C@H](O)CNc3cc(C(F)(F)F)cc(C(F)(F)F)c3)c(F)c2)C(=O)O1"
3.01

----------
Here the recorded solubility is given for each entry.
assay: Aqueous solubility of the compound by HPLC analysis; type: physicochemical
Respond with the bare value in µM.

Some entries whose results are on file:
O=C1O[C@H](COc2ccccc2F)CN1c1ccccc1 441
CC(=O)NC[C@H]1CN(c2ccc(OC[C@@H]3CNC(=O)O3)c(F)c2)C(=O)O1 2720
CC(=O)NC[C@H]1CN(c2ccc(OC[C@H](O)CNc3ccncc3)c(F)c2)C(=O)O1 24600

Moving on to another molecule below.
Complete the entry with solubility for "CC(=O)NC[C@H]1CN(c2ccc(OC[C@H](O)CNc3ccc(C#N)cc3)c(F)c2)C(=O)O1"
69

----------
assay: Lipophilicity, log P of the compound by HPLC analysis; type: physicochemical
assay_endpoint: logP
A bare number is all that is needed in reply.

Some entries whose results are on file:
CC(=O)NC[C@H]1CN(c2ccc(OC[C@@H](O)CNc3ccncc3)c(F)c2)C(=O)O1 -0.04
COc1ccc(N2C[C@@H](COc3ccc(N4C[C@H](CNC(C)=O)OC4=O)cc3F)OC2=O)cc1 1.91
COc1ccc(N2C[C@H](COc3ccc(N4C[C@H](CNC(C)=O)OC4=O)cc3F)OC2=O)cc1 1.73
CC(=O)NC[C@H]1CN(c2ccc(OC[C@@H]3CNC(=O)O3)c(F)c2)C(=O)O1 0.01
CC(=O)NC[C@H]1CN(c2ccc(OC[C@H](O)CNc3ccccc3)c(F)c2)C(=O)O1 0.59

Moving on to another compound below.
Complete the entry with logP for "CC(=O)NC[C@H]1CN(c2ccc(OC[C@@H]3CN(c4ccccc4)C(=O)O3)c(F)c2)C(=O)O1"
1.78
